Just for reference, ChEMBL document CHEMBL1743201 is where these values come from.

- study_system: UDP-glucuronosyltransferase 2B7 (Homo sapiens)
- Sequence (P16662 whole entry): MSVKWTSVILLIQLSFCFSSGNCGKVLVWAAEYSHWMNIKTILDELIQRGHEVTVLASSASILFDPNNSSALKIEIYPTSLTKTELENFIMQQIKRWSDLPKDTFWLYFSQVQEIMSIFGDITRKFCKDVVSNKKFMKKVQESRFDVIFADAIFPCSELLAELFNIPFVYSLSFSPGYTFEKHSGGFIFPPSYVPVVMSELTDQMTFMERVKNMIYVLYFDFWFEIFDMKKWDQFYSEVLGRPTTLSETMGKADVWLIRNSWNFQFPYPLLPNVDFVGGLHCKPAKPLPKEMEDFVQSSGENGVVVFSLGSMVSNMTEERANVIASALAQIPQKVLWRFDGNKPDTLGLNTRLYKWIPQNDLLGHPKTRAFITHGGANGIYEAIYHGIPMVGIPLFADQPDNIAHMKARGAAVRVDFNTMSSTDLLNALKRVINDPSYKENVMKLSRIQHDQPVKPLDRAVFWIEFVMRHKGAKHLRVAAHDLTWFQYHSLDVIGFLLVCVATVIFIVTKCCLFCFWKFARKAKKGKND
- run_description: Substrate of human UDP-glucuronosyltransferase UGT2B7
- Type: ADME
quantity_name: Activity

* CC(C)(Oc1ccc(Cl)cc1)C(=O)O | Substrate
* O=C(O)Cc1ccccc1Nc1c(Cl)cccc1Cl | Substrate
* CC(C(=O)O)c1ccc(C(=O)c2ccccc2)s1 (stereo not drawn) | Substrate

###

- study_system: UniProt Q9HAW7
- Sequence (Q9HAW7 whole entry): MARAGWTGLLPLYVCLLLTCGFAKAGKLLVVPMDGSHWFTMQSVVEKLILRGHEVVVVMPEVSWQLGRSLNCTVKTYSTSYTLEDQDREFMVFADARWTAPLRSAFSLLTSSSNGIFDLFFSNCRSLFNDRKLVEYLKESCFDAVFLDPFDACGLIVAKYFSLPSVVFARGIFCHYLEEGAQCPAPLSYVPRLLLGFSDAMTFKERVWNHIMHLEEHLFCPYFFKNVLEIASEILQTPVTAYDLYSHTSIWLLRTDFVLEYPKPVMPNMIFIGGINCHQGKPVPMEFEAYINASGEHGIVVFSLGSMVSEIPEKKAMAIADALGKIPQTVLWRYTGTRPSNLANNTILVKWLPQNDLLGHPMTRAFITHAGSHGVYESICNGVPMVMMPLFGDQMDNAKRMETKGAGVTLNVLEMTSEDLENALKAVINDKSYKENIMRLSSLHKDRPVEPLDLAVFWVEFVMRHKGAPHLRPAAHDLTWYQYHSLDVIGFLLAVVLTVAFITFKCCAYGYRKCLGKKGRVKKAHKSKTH
- run_description: Substrate of human UDP-glucuronosyltransferase UGT1A7
- Assay type: ADME
quantity_name: Activity

Below: 4 molecules and their reported Activity.
* CCCCCCCCOC(=O)c1cc(O)c(O)c(O)c1 [OCTYL_GALLATE] | Substrate
* CCc1c2c(nc3ccc(O)cc13)-c1cc3c(c(=O)n1C2)COC(=O)[C@]3(O)CC [7-ETHYL-10-HYDROXYCAMPTOTHECIN] | Substrate
* C[C@]12CC[C@@H]3c4ccc(O)c(O)c4CC[C@H]3[C@@H]1CCC2=O | Substrate
* Oc1ccc(-c2ccccc2)cc1 | Substrate

Now take the following molecule into account.
Fill in the blank: the reported Activity of COc1c(C)c2c(c(O)c1C/C=C(\C)CCC(=O)O)C(=O)OC2 [MYCOPHENOLIC ACID] is ____.
Substrate

###

- study_system: Cytochrome P450 2C9 (Homo sapiens, UniProt P11712)
- Sequence (P11712 whole entry, canonical isoform): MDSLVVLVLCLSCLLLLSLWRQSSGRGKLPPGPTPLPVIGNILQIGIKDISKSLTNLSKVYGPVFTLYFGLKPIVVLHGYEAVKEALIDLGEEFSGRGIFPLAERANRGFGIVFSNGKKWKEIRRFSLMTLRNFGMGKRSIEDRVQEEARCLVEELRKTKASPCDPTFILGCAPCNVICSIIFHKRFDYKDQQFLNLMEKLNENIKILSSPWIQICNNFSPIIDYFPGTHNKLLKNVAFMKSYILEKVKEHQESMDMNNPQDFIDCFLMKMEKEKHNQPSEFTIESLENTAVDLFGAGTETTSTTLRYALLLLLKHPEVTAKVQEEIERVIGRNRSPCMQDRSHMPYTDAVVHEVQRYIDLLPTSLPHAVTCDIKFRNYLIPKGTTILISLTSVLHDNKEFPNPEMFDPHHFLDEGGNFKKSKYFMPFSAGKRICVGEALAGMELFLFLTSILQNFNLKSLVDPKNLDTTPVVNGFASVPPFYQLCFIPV
- run_description: Clinically relevant substrates of human liver microsomal P450 enzymes, isoform CYP2C9
- Type: ADME
- assay_setup: microsomes
quantity_name: Activity

// below: answered compounds
- CC(=O)C[C@@H](c1ccccc1)c1c(O)c2ccccc2oc1=O: Substrate
- CNCCC(Oc1ccc(C(F)(F)F)cc1)c1ccccc1 (stereo not given): Substrate
- O=C(O)Cc1ccccc1Nc1c(Cl)cccc1Cl: Substrate
- O=C1NC(=O)C(c2ccccc2)(c2ccccc2)N1: Substrate

Please find the next compound below.
Observed Activity on Cytochrome P450 2C9 (Homo sapiens, UniProt P11712) for CC(C(=O)O)c1ccc(-c2ccccc2)c(F)c1 (stereo not given) , please.
Substrate

###

- study_system: UDP-glucuronosyltransferase 1A10 (Homo sapiens)
- Sequence (Q9HAW8 whole entry): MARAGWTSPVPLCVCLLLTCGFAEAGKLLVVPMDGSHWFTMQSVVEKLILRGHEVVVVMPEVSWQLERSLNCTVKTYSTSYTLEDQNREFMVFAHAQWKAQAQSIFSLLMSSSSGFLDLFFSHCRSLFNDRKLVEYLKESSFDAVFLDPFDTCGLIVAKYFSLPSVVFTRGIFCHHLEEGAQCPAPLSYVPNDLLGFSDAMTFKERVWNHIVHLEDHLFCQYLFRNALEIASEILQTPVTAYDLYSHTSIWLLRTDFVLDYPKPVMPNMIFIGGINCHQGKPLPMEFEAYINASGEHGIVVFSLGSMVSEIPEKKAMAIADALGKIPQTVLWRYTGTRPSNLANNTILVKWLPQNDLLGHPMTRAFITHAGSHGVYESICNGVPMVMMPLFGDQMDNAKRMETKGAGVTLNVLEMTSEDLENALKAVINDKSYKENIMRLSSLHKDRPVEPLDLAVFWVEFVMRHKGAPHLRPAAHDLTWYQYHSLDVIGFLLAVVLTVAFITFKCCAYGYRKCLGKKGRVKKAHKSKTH
- run_description: Substrate of human UDP-glucuronosyltransferase UGT1A10
- Type: ADME
quantity_name: Activity

• Oc1cccc2ccccc12 = Substrate
• O=C(c1ccc(OCCN2CCCCC2)cc1)c1c(-c2ccc(O)cc2)sc2cc(O)ccc12 = Substrate
• COc1c(C)c2c(c(O)c1C/C=C(\C)CCC(=O)O)C(=O)OC2 = Substrate
• CC#C[C@]1(O)CC[C@H]2[C@@H]3CCc4cc(O)ccc4[C@H]3CC[C@@]21C = Substrate
• NS(=O)(=O)c1cc(C(=O)O)c(NCc2ccco2)cc1Cl [FUROSEMIDE] = Substrate

Switching to the query record.
Sample Cc1c(C)c2c(c(C)c1O)CCC(C)(COc1ccc(CC3SC(=O)NC3=O)cc1)O2 (stereo unspecified) — what was its Activity?
Substrate

###

- study_system: Glutathione S-transferase Mu 2 (Homo sapiens)
- Sequence (P28161 whole entry): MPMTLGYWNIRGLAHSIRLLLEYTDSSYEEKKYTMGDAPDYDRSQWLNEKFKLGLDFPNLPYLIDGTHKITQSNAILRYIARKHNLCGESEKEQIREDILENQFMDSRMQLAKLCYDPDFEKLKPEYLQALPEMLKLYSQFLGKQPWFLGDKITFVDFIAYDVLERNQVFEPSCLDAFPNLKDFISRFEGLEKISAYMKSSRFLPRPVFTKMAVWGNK
- run_description: Substrates for human cytosolic glutathione transferase GSTM2
- Format: ADME
quantity_name: Activity

Sample records with Activity:
- C/C=C/C(=O)OCC1=CCCCC1=O: Substrate
- O=C1C=C2CCNC2=CC1=O: Substrate
- NC(CC1=CC(=O)C(=O)C=C1)C(=O)O (stereo not given): Substrate
- CCCCC[C@H](O)/C=C/[C@H]1C2CC(OO2)[C@@H]1C/C=C\CCCC(=O)O (stereo not given in full): Substrate

Proceeding to the next compound to report its Activity.
Any idea what Activity was measured for O=[N+]([O-])c1ccc(Cl)c(Cl)c1 ?
Substrate

###

- study_system: UDP-glucuronosyltransferase 1A9 (Homo sapiens)
- Sequence (O60656 whole entry): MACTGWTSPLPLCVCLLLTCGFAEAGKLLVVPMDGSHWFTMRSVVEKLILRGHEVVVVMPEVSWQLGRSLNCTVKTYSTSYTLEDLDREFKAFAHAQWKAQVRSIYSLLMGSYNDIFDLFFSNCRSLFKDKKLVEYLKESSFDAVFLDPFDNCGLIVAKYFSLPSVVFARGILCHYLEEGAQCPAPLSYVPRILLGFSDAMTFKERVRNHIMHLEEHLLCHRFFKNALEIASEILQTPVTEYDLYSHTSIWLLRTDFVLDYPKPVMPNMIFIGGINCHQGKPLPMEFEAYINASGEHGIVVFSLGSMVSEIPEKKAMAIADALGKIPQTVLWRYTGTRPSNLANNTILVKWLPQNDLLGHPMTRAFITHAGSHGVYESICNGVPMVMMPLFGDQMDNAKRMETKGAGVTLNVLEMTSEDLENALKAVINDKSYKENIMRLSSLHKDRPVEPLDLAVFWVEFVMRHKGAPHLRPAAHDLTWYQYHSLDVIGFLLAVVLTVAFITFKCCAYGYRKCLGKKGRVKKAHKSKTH
- run_description: Substrate of human UDP-glucuronosyltransferase UGT1A9
- Format: ADME
quantity_name: Activity

- CC(C)Cc1ccc(C(C)C(=O)O)cc1 (stereo not drawn): Substrate
- NS(=O)(=O)c1cc(C(=O)O)c(NCc2ccco2)cc1Cl [FUROSEMIDE]: Substrate
- CC(C)c1cccc(C(C)C)c1O: Substrate

###

- study_system: UniProtKB P11712
- run_description: Clinically relevant inhibitors of human liver microsomal P450 enzymes, isoform CYP2C9
- Type: ADME
- assay_setup: microsomes
quantity_name: Activity

• O=C(O)COc1ccc(C(=O)c2cccs2)c(Cl)c1Cl = Inhibitor
• OC(Cn1cncn1)(Cn1cncn1)c1ccc(F)cc1F = Inhibitor
• CNCCC(Oc1ccc(C(F)(F)F)cc1)c1ccccc1 (configuration not stated) = Inhibitor
• CCCCCOC(=O)Nc1nc(=O)n([C@@H]2O[C@H](C)[C@@H](O)[C@H]2O)cc1F = Inhibitor
• Nc1ccc(S(=O)(=O)Nc2ccnn2-c2ccccc2)cc1 = Inhibitor

Given C[C@]12COC(=O)C[C@@H]1CC[C@@H]1[C@@H]2CC[C@@]2(C)[C@H]1CC[C@]2(C)O , state its recorded Activity.
Inhibitor

// Activity lookup, key: COCCCC/C(=N\OCCN)c1ccc(C(F)(F)F)cc1
Inhibitor
